Every entry's value here was drawn from paper PMC11912471.

- SYSTEM: purified human ODC enzyme (Homo sapiens, UniProt P11926)
- Construct: His6 (C); made in house; host or cells: E. coli BL21(DE3)
- Sequence (P11926 whole entry): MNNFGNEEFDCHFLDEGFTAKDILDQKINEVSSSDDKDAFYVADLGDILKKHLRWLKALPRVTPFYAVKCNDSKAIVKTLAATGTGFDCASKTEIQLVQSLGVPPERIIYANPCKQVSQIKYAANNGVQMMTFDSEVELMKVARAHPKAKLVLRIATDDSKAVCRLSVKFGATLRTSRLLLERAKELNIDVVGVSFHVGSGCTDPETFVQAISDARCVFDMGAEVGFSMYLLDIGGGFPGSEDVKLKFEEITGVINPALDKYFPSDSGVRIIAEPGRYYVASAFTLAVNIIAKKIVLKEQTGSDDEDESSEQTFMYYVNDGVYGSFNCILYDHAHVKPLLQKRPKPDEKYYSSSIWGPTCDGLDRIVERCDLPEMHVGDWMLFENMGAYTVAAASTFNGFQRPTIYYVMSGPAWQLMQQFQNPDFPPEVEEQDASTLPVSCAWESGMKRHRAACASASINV
- PROTOCOL DESCRIPTION: In vitro ODC enzyme activity assay
- Type: biochemical
- PROTOCOL CONDITIONS: read-out: ODC biochemical inhibition % (50 μM)
Exercise: state measured inhibition at 50 µM for each of the compounds provided.

A selection of reference data follows.
NOC[C@H]1CCCNC1 [Compound 7-S] = 99%
Cc1ncc(COP(=O)(O)O)c(/C=N/OCCCN)c1O [APA-PLP] = 99%
NOCC1CCCNC1 (stereo not shown) [Compound 7] = 99%
NOC1CCNCC1 [Compound 9] = 0%
NCCCON [APA] = > 99%
NOC[C@@H]1CCNC1 [Compound 10-R] = 99%
Cl.Cl.NOCC1(F)CCNC1 (stereo not shown) [Compound 11] = > 99%
NCCC[C@](N)(C(=O)O)C(F)F [DFMO, α-difluoromethylornithine] = 47%
Cc1ncc(COP(=O)(O)O)c(/C=N/OC[C@@H]2CCNC2)c1O [10-R-PLP] = 96%

Request: What does the record list as inhibition at 50 µM for NOCCC1CCCCN1 (stereo not shown) [Compound 6] ?
Result: 3%

---

- Test system: Kelly neuroblastoma cells
- PROTOCOL DESCRIPTION: Sulforhodamine B (SRB) cytotoxicity assay, Kelly neuroblastoma cells
- Format: cell-based
- PROTOCOL CONDITIONS: 72 hr, 500 μM, percent cytotoxicity
# cutoff 50% applies to Cell cytotoxicity (72 hr @ 500 μM) Kelly Neuroblastoma; >= gives true (1), < gives false (0)

Solved cases below.
NCCCON = true (1)
Cc1ncc(COP(=O)(O)O)c(/C=N/OC[C@@H]2CCNC2)c1O = true (1)
NOCC1CCCNC1 (centres unmarked) = true (1)
NOCC1CCNC1 (centres unmarked) = true (1)
NOCC1CNCCO1 (centres unmarked) = false (0)

Request: Textbook exercise: given the entry Cc1ncc(COP(=O)(O)O)c(/C=N/OCC2(F)CCNC2)c1O (centres unmarked) , state whether its Cell cytotoxicity (72 hr @ 500 μM) Kelly Neuroblastoma is greater than or equal to 50%.
Result: false (0)

Request: Textbook exercise: given the entry NCCC[C@](N)(C(=O)O)C(F)F , state whether its Cell cytotoxicity (72 hr @ 500 μM) Kelly Neuroblastoma is greater than or equal to 50%.
Result: false (0)

Request: Textbook exercise: given the entry NOC[C@H]1CCNC1 , state whether its Cell cytotoxicity (72 hr @ 500 μM) Kelly Neuroblastoma is greater than or equal to 50%.
Result: true (1)

Request: Textbook exercise: given the entry NOC[C@H]1CCCNC1 , state whether its Cell cytotoxicity (72 hr @ 500 μM) Kelly Neuroblastoma is greater than or equal to 50%.
Result: true (1)

Request: Textbook exercise: given the entry Cl.Cl.NOCC1(F)CCNC1 (centres unmarked) , state whether its Cell cytotoxicity (72 hr @ 500 μM) Kelly Neuroblastoma is greater than or equal to 50%.
Result: false (0)

Request: Textbook exercise: given the entry Cc1ncc(COP(=O)(O)O)c(/C=N/OCCCN)c1O , state whether its Cell cytotoxicity (72 hr @ 500 μM) Kelly Neuroblastoma is greater than or equal to 50%.
Result: false (0)

Request: Textbook exercise: given the entry Cc1ncc(COP(=O)(O)O)c(/C=N/OC[C@H]2CCNC2)c1O , state whether its Cell cytotoxicity (72 hr @ 500 μM) Kelly Neuroblastoma is greater than or equal to 50%.
Result: false (0)

Request: Textbook exercise: given the entry NOC[C@@H]1CCNC1 , state whether its Cell cytotoxicity (72 hr @ 500 μM) Kelly Neuroblastoma is greater than or equal to 50%.
Result: true (1)
